Overview of recorded % inhibition in AChE activity for various compounds
# ASSAYED_SYSTEM: acetylcholine esterase (AChE) (Rattus norvegicus)
# Construct: The cell extracts were used as samples for measuring the acetylcholine esterase (AChE) activity; endogenous in cells; host or cells: rat pheochromocytoma PC 12 cells, induced with β-amyloid peptide
# Sequence (P37136 32-614): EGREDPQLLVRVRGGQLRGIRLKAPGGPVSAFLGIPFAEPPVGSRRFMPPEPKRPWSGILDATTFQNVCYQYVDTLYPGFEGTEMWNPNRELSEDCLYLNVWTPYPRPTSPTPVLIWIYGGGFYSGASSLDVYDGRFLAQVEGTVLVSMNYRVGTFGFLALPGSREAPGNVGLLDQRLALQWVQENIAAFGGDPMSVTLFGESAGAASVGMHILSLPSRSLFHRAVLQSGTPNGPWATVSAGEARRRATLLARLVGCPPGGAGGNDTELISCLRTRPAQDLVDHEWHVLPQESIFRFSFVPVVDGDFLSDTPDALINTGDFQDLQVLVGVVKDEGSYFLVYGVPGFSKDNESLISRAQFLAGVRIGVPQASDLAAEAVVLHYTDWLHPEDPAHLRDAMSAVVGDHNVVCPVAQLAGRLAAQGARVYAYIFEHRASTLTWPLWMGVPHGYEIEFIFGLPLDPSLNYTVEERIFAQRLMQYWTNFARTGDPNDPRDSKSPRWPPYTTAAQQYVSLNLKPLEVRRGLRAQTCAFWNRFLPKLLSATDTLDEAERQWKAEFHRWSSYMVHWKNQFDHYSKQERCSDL
# PROTOCOL_NOTES: Acetylcholine esterase inhibitory activity in β-amyloid peptide induced PC 12 cells
# Type: cell-based
# EXPERIMENTAL_PARAMETERS: 100 ng/ml; PC 12 cells; Table 5
Note: unit % is implicit; provide only the numeric part.

C[C@H]1[C@H](C)CC[C@]2(C)CC[C@]3(C)C(=CC(=O)[C@@H]4[C@@]5(C)CC[C@@H](O)[C@](C)(C(=O)O)[C@@H]5CC[C@]43C)[C@H]12 = 31.39
CC(=O)O[C@@H]1CC[C@@]2(C)[C@@H](CC[C@]3(C)[C@@H]2CC=C2[C@@H]4[C@@H](C)[C@H](C)CC[C@]4(C)CC[C@]23C)[C@@]1(C)C(=O)O = 37.34
CC1(C)CC[C@]2(C)CC[C@]3(C)C(=CC[C@@H]4[C@@]5(C)CC[C@@H](O)[C@](C)(C(=O)O)[C@@H]5CC[C@]43C)[C@@H]2C1 = 38.42
CC(=O)O[C@@H]1CC[C@@]2(C)[C@@H](CC[C@]3(C)[C@@H]2CC=C2[C@@H]4CC(C)(C)CC[C@]4(C)CC[C@]23C)[C@@]1(C)C(=O)O = 29.22

The value of % inhibition in AChE activity measured for the compound C[C@H]1[C@H](C)CC[C@]2(C)CC[C@]3(C)C(=CC[C@@H]4[C@@]5(C)CC[C@@H](O)[C@](C)(C(=O)O)[C@@H]5CC[C@]43C)[C@H]12 turned out to be 46.54

---

# ASSAYED_SYSTEM: Acetylcholinesterase (Homo sapiens)
# Sequence (P22303 32-614, species assumed): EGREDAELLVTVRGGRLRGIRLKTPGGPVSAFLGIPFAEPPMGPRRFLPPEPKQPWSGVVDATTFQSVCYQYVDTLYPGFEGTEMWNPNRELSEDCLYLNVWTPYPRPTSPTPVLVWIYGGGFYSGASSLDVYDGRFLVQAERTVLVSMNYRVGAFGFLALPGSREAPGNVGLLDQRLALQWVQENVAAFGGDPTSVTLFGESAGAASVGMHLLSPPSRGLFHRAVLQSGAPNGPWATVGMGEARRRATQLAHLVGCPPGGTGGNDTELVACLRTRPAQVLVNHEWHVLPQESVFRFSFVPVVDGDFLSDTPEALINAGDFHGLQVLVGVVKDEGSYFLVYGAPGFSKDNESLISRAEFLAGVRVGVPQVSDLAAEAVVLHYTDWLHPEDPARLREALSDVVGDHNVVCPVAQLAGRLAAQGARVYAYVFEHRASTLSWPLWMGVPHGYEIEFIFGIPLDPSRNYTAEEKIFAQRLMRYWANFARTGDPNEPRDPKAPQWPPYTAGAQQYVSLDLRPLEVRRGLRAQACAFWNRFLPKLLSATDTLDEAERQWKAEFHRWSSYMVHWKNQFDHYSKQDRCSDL
# PROTOCOL_NOTES: Acetylcholinesterase inhibitory activity, in vitro enzymatic assay (Ellman method)
# Type: biochemical
# EXPERIMENTAL_PARAMETERS: 50 ng; Table 3
QUANTITY_KIND: % Inhibition at concentrations of 50 ng
Form field: result (number plus unit)

// worked examples, % Inhibition at concentrations of 50 ng included
CC(=O)O[C@@H]1CC[C@@]2(C)[C@@H](CC[C@]3(C)[C@@H]2CC=C2[C@@H]4CC(C)(C)CC[C@]4(C)CC[C@]23C)[C@@]1(C)C(=O)O [3-O-acetyl-α-boswellic acid] = 21.28%
C[C@H]1[C@H](C)CC[C@]2(C)CC[C@]3(C)C(=CC(=O)[C@@H]4[C@@]5(C)CC[C@@H](O)[C@](C)(C(=O)O)[C@@H]5CC[C@]43C)[C@H]12 [11-keto-β-boswellic acid] = 16.36%
C[C@H]1[C@H](C)CC[C@]2(C)CC[C@]3(C)C(=CC[C@@H]4[C@@]5(C)CC[C@@H](O)[C@](C)(C(=O)O)[C@@H]5CC[C@]43C)[C@H]12 [β-boswellic acid] = 21.23%
CC1(C)CC[C@]2(C)CC[C@]3(C)C(=CC[C@@H]4[C@@]5(C)CC[C@@H](O)[C@](C)(C(=O)O)[C@@H]5CC[C@]43C)[C@@H]2C1 [α-boswellic acid] = 21.92%

Now turn to the next compound.
Looking up CC(=O)O[C@@H]1CC[C@@]2(C)[C@@H](CC[C@]3(C)[C@@H]2CC=C2[C@@H]4[C@@H](C)[C@H](C)CC[C@]4(C)CC[C@]23C)[C@@]1(C)C(=O)O [3-O-acetyl-β-boswellic acid] , I see its % Inhibition at concentrations of 50 ng listed as 40.32%

---

# ASSAYED_SYSTEM: Acetylcholinesterase (Homo sapiens)
# PROTOCOL_NOTES: Acetylcholinesterase inhibitory activity, in vitro enzymatic assay (Ellman method)
# Type: biochemical
# EXPERIMENTAL_PARAMETERS: 25 ng; Table 3
QUANTITY_KIND: % Inhibition at concentrations of 25 ng (%)
Report the value in % with no unit label.

CC1(C)CC[C@]2(C)CC[C@]3(C)C(=CC[C@@H]4[C@@]5(C)CC[C@@H](O)[C@](C)(C(=O)O)[C@@H]5CC[C@]43C)[C@@H]2C1 [α-boswellic acid] = 13.85
C[C@H]1[C@H](C)CC[C@]2(C)CC[C@]3(C)C(=CC(=O)[C@@H]4[C@@]5(C)CC[C@@H](O)[C@](C)(C(=O)O)[C@@H]5CC[C@]43C)[C@H]12 [11-keto-β-boswellic acid] = 11.82
C[C@H]1[C@H](C)CC[C@]2(C)CC[C@]3(C)C(=CC[C@@H]4[C@@]5(C)CC[C@@H](O)[C@](C)(C(=O)O)[C@@H]5CC[C@]43C)[C@H]12 [β-boswellic acid] = 16.75
CC(=O)O[C@@H]1CC[C@@]2(C)[C@@H](CC[C@]3(C)[C@@H]2CC=C2[C@@H]4CC(C)(C)CC[C@]4(C)CC[C@]23C)[C@@]1(C)C(=O)O [3-O-acetyl-α-boswellic acid] = 14.86

# next compound below
The recorded % Inhibition at concentrations of 25 ng for CC(=O)O[C@@H]1CC[C@@]2(C)[C@@H](CC[C@]3(C)[C@@H]2CC=C2[C@@H]4[C@@H](C)[C@H](C)CC[C@]4(C)CC[C@]23C)[C@@]1(C)C(=O)O [3-O-acetyl-β-boswellic acid] is 36.29

---

Listing of entries alongside the reported IC50.
# ASSAYED_SYSTEM: Acetylcholinesterase (Homo sapiens)
# PROTOCOL_NOTES: Acetylcholinesterase inhibitory activity, in vitro enzymatic assay (Ellman method)
# Type: biochemical
# EXPERIMENTAL_PARAMETERS: Table 3
# Procedure: As a part of developing new agents for improving brain/mental function and alleviating disease conditions related to cognition and memory deficits, a large number of plant extracts have been screened for their inhibitory property on Acetylcholinesterase enzyme activity. […] Its acetylcholinesterase inhibitory activity was also evaluated by a cell based in vitro assay in Rat pheochromocytoma PC 12 cells. […]

Item: CC(=O)O[C@@H]1CC[C@@]2(C)[C@@H](CC[C@]3(C)[C@@H]2CC=C2[C@@H]4[C@@H](C)[C@H](C)CC[C@]4(C)CC[C@]23C)[C@@]1(C)C(=O)O | IC50: 0.09177 µg/mL

// sample C[C@H]1[C@H](C)CC[C@]2(C)CC[C@]3(C)C(=CC[C@@H]4[C@@]5(C)CC[C@@H](O)[C@](C)(C(=O)O)[C@@H]5CC[C@]43C)[C@H]12 , its IC50 was >0.1 µg/mL

---

% Inhibition at concentrations of 100 ng by entry:
# ASSAYED_SYSTEM: Acetylcholinesterase (Homo sapiens)
# PROTOCOL_NOTES: Acetylcholinesterase inhibitory activity, in vitro enzymatic assay (Ellman method)
# Assay type: biochemical
# EXPERIMENTAL_PARAMETERS: 100 ng; Table 3
# Experimental: As a part of developing new agents for improving brain/mental function and alleviating disease conditions related to cognition and memory deficits, a large number of plant extracts have been screened for their inhibitory property on Acetylcholinesterase enzyme activity. […] Its acetylcholinesterase inhibitory activity was also evaluated by a cell based in vitro assay in Rat pheochromocytoma PC 12 cells. […]
Answer in %, number only, no unit symbol.

C[C@H]1[C@H](C)CC[C@]2(C)CC[C@]3(C)C(=CC(=O)[C@@H]4[C@@]5(C)CC[C@@H](O)[C@](C)(C(=O)O)[C@@H]5CC[C@]43C)[C@H]12 [11-keto-β-boswellic acid] = 24.55
CC(=O)O[C@@H]1CC[C@@]2(C)[C@@H](CC[C@]3(C)[C@@H]2CC=C2[C@@H]4[C@@H](C)[C@H](C)CC[C@]4(C)CC[C@]23C)[C@@]1(C)C(=O)O [3-O-acetyl-β-boswellic acid] = 52.02
CC1(C)CC[C@]2(C)CC[C@]3(C)C(=CC[C@@H]4[C@@]5(C)CC[C@@H](O)[C@](C)(C(=O)O)[C@@H]5CC[C@]43C)[C@@H]2C1 [α-boswellic acid] = 39.23
CC(=O)O[C@@H]1CC[C@@]2(C)[C@@H](CC[C@]3(C)[C@@H]2CC=C2[C@@H]4CC(C)(C)CC[C@]4(C)CC[C@]23C)[C@@]1(C)C(=O)O [3-O-acetyl-α-boswellic acid] = 33.11

Now for a further molecule.
C[C@H]1[C@H](C)CC[C@]2(C)CC[C@]3(C)C(=CC[C@@H]4[C@@]5(C)CC[C@@H](O)[C@](C)(C(=O)O)[C@@H]5CC[C@]43C)[C@H]12 [β-boswellic acid] tested on Acetylcholinesterase (Homo sapiens) gave % Inhibition at concentrations of 100 ng: 31.37

---

# ASSAYED_SYSTEM: Acetylcholinesterase (Homo sapiens)
# PROTOCOL_NOTES: Acetylcholinesterase inhibitory activity, in vitro enzymatic assay (Ellman method)
# Assay type: biochemical
# EXPERIMENTAL_PARAMETERS: Table 3
Catalogue of compounds with associated IC50

These recorded examples may help you get a feel for the data.
CC1(C)CC[C@]2(C)CC[C@]3(C)C(=CC[C@@H]4[C@@]5(C)CC[C@@H](O)[C@](C)(C(=O)O)[C@@H]5CC[C@]43C)[C@@H]2C1 [α-boswellic acid] = >0.1 µg/mL
C[C@H]1[C@H](C)CC[C@]2(C)CC[C@]3(C)C(=CC(=O)[C@@H]4[C@@]5(C)CC[C@@H](O)[C@](C)(C(=O)O)[C@@H]5CC[C@]43C)[C@H]12 [11-keto-β-boswellic acid] = >0.1 µg/mL

Consider now this further compound.
In plain terms, CC(=O)O[C@@H]1CC[C@@]2(C)[C@@H](CC[C@]3(C)[C@@H]2CC=C2[C@@H]4CC(C)(C)CC[C@]4(C)CC[C@]23C)[C@@]1(C)C(=O)O [3-O-acetyl-α-boswellic acid] has a documented IC50 of >0.1 µg/mL
